// values below are reported AMAPA percentage damage caused to the plant (five-point scale)
tested on: Amaranthus palmeri (AMAPA); assay: Pre-emergence herbicidal test, glasshouse; type: in vivo; settings: 250 g/ha, evaluated after 13 days

| COMPOUND STRING | READING |
| --- | --- |
| FC(F)c1cc(Cc2ncc(Cl)cn2)n(-c2ccc(Cl)cc2)n1 | 5 (5=81-100%) |
| Fc1cc(-n2nc(C(F)(F)F)cc2Cc2ncc(Cl)cn2)cnc1Cl | 5 (5=81-100%) |

Exam item: Endpoint output: AMAPA percentage damage caused to the plant (five-point scale) of COc1cnc(Cc2cc(C(F)(F)F)nn2-c2ccc(C(F)(F)F)cc2)nc1 . Value?
Marked response: 5 (5=81-100%)

Exam item: Continue with Fc1cnc(Cc2cc(C(F)(F)F)nn2-c2ccc(C(F)(F)F)cc2)nc1
Marked response: 5 (5=81-100%)

Exam item: Continue with FC(F)(F)c1cc(Cc2ncc(Cl)cn2)n(-c2ccc(Cl)cc2)n1
Marked response: 5 (5=81-100%)

Exam item: Continue with N#Cc1cc(Cc2ncc(Cl)cn2)n(-c2ccc(F)c(F)c2)n1
Marked response: 5 (5=81-100%)

Exam item: Continue with FC(F)(F)c1ccc(-n2nc(C(F)(F)F)cc2Cc2ncc(Cl)cn2)cc1
Marked response: 5 (5=81-100%)

Exam item: Continue with FC(F)(F)c1ccc(-n2nc(C(F)(F)F)cc2Cc2ncc(Br)cn2)cc1
Marked response: 5 (5=81-100%)

Exam item: Continue with Fc1ccc(-n2nc(C(F)(F)Cl)cc2Cc2ncc(Cl)cn2)cc1F
Marked response: 5 (5=81-100%)

Exam item: Continue with FC(F)c1cc(Cc2ncc(Cl)cn2)n(-c2cnc(Cl)c(Cl)c2)n1
Marked response: 5 (5=81-100%)

Exam item: Continue with FC(F)(F)c1cc(Cc2ncc(Cl)cn2)n(-c2ccc(Cl)nc2)n1
Marked response: 5 (5=81-100%)

Exam item: Continue with FC(F)(Cl)c1cc(Cc2ncc(Cl)cn2)n(-c2ccc(Cl)nc2)n1
Marked response: 5 (5=81-100%)

Exam item: Continue with CS(=O)(=O)c1ccc(-n2nc(C(F)F)cc2Cc2ncc(Cl)cn2)cc1
Marked response: 5 (5=81-100%)

Exam item: Continue with N#Cc1ccc(-n2nc(C(F)F)cc2Cc2ncc(Cl)cn2)cc1
Marked response: 5 (5=81-100%)

Exam item: Continue with FC(F)c1cc(Cc2ncc(Cl)cn2)n(-c2cccc(Cl)c2)n1
Marked response: 5 (5=81-100%)

Exam item: Continue with FC(F)(F)c1ccc(-n2nc(C(F)(F)Cl)cc2Cc2ncc(Cl)cn2)cc1
Marked response: 5 (5=81-100%)

---

tested on: Echinochloa crus-galli (ECHCG); experiment: Post-emergence herbicidal test, glasshouse; format: in vivo; conditions: 250 g/ha, evaluated after 13 days
// values below are reported ECHCG percentage damage caused to the plant (five-point scale)

Exam item: Endpoint output: ECHCG percentage damage caused to the plant (five-point scale) of FC(F)(Cl)c1cc(Cc2ncc(Cl)cn2)n(-c2cnc(Cl)c(Cl)c2)n1 . Value?
Marked response: 4 (4=61-80%)

Exam item: Continue with Fc1cnc(Cc2cc(C(F)(F)F)nn2-c2ccc(C(F)(F)F)cc2)nc1
Marked response: 5 (5=81-100%)

Exam item: Continue with FC(F)c1cc(Cc2ncc(Cl)cn2)n(-c2ccc(C(F)(F)F)cc2)n1
Marked response: 5 (5=81-100%)

Exam item: Continue with FC(F)c1cc(Cc2ncc(Cl)cn2)n(-c2cnc(Cl)c(Cl)c2)n1
Marked response: 4 (4=61-80%)

Exam item: Continue with Cc1ccc(-n2nc(C(F)(F)F)cc2Cc2ncc(Cl)cn2)cc1
Marked response: 4 (4=61-80%)

Exam item: Continue with FC(F)(F)c1ccc(-n2nc(C(F)(F)Cl)cc2Cc2ncc(Cl)cn2)cc1
Marked response: 5 (5=81-100%)

Exam item: Continue with FC(F)(Cl)c1cc(Cc2ncc(Cl)cn2)n(-c2ccc(Cl)nc2)n1
Marked response: 5 (5=81-100%)

Exam item: Continue with FC(F)(F)c1cc(Cc2ncc(Cl)cn2)n(-c2ccc(Cl)nc2)n1
Marked response: 5 (5=81-100%)

Exam item: Continue with N#Cc1ccc(-n2nc(C#N)cc2Cc2ncc(Cl)cn2)cn1
Marked response: 4 (4=61-80%)

Exam item: Continue with FC(F)(F)c1cc(Cc2ncc(Cl)cn2)n(-c2ccc(Cl)cc2)n1
Marked response: 5 (5=81-100%)

Exam item: Continue with Fc1ccc(-n2nc(C(F)(F)Cl)cc2Cc2ncc(Cl)cn2)cc1F
Marked response: 5 (5=81-100%)

---

tested on: Echinochloa crus-galli (ECHCG); assay: Post-emergence herbicidal test, glasshouse; format: in vivo; conditions: 250 g/ha, evaluated after 13 days
ENDPOINT LABEL: ECHCG percentage damage caused to the plant (five-point scale)

The cases that follow already have their ECHCG percentage damage caused to the plant (five-point scale) on record.
| COMPOUND STRING | READING |
| --- | --- |
| Clc1cnc(Cc2cc(I)nn2-c2ccc(Cl)nc2)nc1 | 5 (5=81-100%) |
| Fc1ccc(-n2nc(C(F)F)cc2Cc2ncc(Cl)cn2)cc1 | 4 (4=61-80%) |
| Fc1ccc(-n2nc(C(F)F)cc2Cc2ncc(Cl)cn2)cc1F | 4 (4=61-80%) |

Exam item: GET /values?readout=ECHCG percentage damage caused to the plant (five-point scale)&system=Echinochloa crus-galli (ECHCG)&item= N#Cc1cnc(Cc2cc(C(F)(F)F)nn2-c2ccc(C(F)(F)F)cc2)nc1
Marked response: 4 (4=61-80%)

Exam item: Continue with COc1cnc(Cc2cc(C(F)(F)F)nn2-c2ccc(C(F)(F)F)cc2)nc1
Marked response: 5 (5=81-100%)

Exam item: Continue with FC(F)c1cc(Cc2ncc(Cl)cn2)n(-c2cccc(Cl)c2)n1
Marked response: 4 (4=61-80%)

Exam item: Continue with N#Cc1cc(Cc2ncc(Cl)cn2)n(-c2ccc(Cl)nc2)n1
Marked response: 5 (5=81-100%)

Exam item: Continue with CS(=O)(=O)c1ccc(-n2nc(C(F)F)cc2Cc2ncc(Cl)cn2)cc1
Marked response: 5 (5=81-100%)

Exam item: Continue with FC(F)(F)c1ccc(-n2nc(C(F)(F)F)c(Cl)c2Cc2ncc(Br)cn2)cc1
Marked response: 4 (4=61-80%)

Exam item: Continue with N#Cc1ccc(-n2nc(C(F)F)cc2Cc2ncc(Cl)cn2)cc1
Marked response: 5 (5=81-100%)

Exam item: Continue with N#Cc1cc(Cc2ncc(Cl)cn2)n(-c2ccc(F)c(F)c2)n1
Marked response: 5 (5=81-100%)

Exam item: Continue with Cc1cnc(Cc2cc(C(F)(F)F)nn2-c2ccc(C(F)(F)F)cc2)nc1
Marked response: 5 (5=81-100%)

Exam item: Continue with N#Cc1ccc(-n2nc(C(F)(F)F)cc2Cc2ncc(Cl)cn2)cc1
Marked response: 5 (5=81-100%)

Exam item: Continue with FC(F)(F)c1ccc(-n2nc(C(F)(F)F)cc2Cc2ncc(Cl)cn2)cc1
Marked response: 4 (4=61-80%)

---

test system: Amaranthus palmeri (AMAPA); test: Post-emergence herbicidal test, glasshouse; assay type: in vivo; details: 250 g/ha, evaluated after 13 days
// values below are reported AMAPA percentage damage caused to the plant (five-point scale)

| COMPOUND STRING | READING |
| --- | --- |
| FC(F)c1cc(Cc2ncc(Cl)cn2)n(-c2ccc(C(F)(F)F)cc2)n1 | 5 (5=81-100%) |

Exam item: GET /values?readout=AMAPA percentage damage caused to the plant (five-point scale)&system=Amaranthus palmeri (AMAPA)&item= Cc1cnc(Cc2cc(C(F)(F)F)nn2-c2ccc(C(F)(F)F)cc2)nc1
Marked response: 5 (5=81-100%)

Exam item: Continue with FC(F)(F)c1ccc(-n2nc(C(F)(F)F)cc2Cc2ncc(Cl)cn2)cc1
Marked response: 4 (4=61-80%)

Exam item: Continue with CS(=O)(=O)c1ccc(-n2nc(C(F)F)cc2Cc2ncc(Cl)cn2)cc1
Marked response: 5 (5=81-100%)

Exam item: Continue with FC(F)c1cc(Cc2ncc(Cl)cn2)n(-c2cnc(Cl)c(Cl)c2)n1
Marked response: 5 (5=81-100%)

Exam item: Continue with FC(F)(F)c1ccc(-n2nc(C(F)(F)F)c(Cl)c2Cc2ncc(Br)cn2)cc1
Marked response: 5 (5=81-100%)

Exam item: Continue with N#Cc1cc(Cc2ncc(Cl)cn2)n(-c2ccc(Cl)nc2)n1
Marked response: 5 (5=81-100%)

Exam item: Continue with FC(F)c1cc(Cc2ncc(Cl)cn2)n(-c2cccc(Cl)c2)n1
Marked response: 4 (4=61-80%)

Exam item: Continue with Fc1ccc(-n2nc(C(F)(F)Cl)cc2Cc2ncc(Cl)cn2)cc1F
Marked response: 5 (5=81-100%)

Exam item: Continue with COc1cnc(Cc2cc(C(F)(F)F)nn2-c2ccc(C(F)(F)F)cc2)nc1
Marked response: 5 (5=81-100%)

Exam item: Continue with N#Cc1cnc(Cc2cc(C(F)(F)F)nn2-c2ccc(C(F)(F)F)cc2)nc1
Marked response: 5 (5=81-100%)

Exam item: Continue with N#Cc1ccc(-n2nc(C#N)cc2Cc2ncc(Cl)cn2)cn1
Marked response: 5 (5=81-100%)

Exam item: Continue with FC(F)c1cc(Cc2ncc(Cl)cn2)n(-c2ccc(Cl)nc2)n1
Marked response: 4 (4=61-80%)

Exam item: Continue with Fc1cnc(Cc2cc(C(F)(F)F)nn2-c2ccc(C(F)(F)F)cc2)nc1
Marked response: 5 (5=81-100%)

Exam item: Continue with Fc1ccc(-n2nc(C(F)F)cc2Cc2ncc(Cl)cn2)cc1F
Marked response: 5 (5=81-100%)

Exam item: Continue with N#Cc1ccc(-n2nc(C(F)(F)F)cc2Cc2ncc(Cl)cn2)cc1
Marked response: 5 (5=81-100%)

Exam item: Continue with FC(F)c1cc(Cc2ncc(Cl)cn2)n(-c2ccc(Cl)cc2)n1
Marked response: 5 (5=81-100%)

Exam item: Continue with Clc1cnc(Cc2cc(I)nn2-c2ccc(Cl)nc2)nc1
Marked response: 5 (5=81-100%)

Exam item: Continue with FC(F)(F)c1cc(Cc2ncc(Cl)cn2)n(-c2ccc(Cl)cc2)n1
Marked response: 5 (5=81-100%)
